target-or-test-system: N-type Ca2+ channels in IMR-32 cells (Homo sapiens, UniProt Q00975)
Sequence (Q00975 whole entry): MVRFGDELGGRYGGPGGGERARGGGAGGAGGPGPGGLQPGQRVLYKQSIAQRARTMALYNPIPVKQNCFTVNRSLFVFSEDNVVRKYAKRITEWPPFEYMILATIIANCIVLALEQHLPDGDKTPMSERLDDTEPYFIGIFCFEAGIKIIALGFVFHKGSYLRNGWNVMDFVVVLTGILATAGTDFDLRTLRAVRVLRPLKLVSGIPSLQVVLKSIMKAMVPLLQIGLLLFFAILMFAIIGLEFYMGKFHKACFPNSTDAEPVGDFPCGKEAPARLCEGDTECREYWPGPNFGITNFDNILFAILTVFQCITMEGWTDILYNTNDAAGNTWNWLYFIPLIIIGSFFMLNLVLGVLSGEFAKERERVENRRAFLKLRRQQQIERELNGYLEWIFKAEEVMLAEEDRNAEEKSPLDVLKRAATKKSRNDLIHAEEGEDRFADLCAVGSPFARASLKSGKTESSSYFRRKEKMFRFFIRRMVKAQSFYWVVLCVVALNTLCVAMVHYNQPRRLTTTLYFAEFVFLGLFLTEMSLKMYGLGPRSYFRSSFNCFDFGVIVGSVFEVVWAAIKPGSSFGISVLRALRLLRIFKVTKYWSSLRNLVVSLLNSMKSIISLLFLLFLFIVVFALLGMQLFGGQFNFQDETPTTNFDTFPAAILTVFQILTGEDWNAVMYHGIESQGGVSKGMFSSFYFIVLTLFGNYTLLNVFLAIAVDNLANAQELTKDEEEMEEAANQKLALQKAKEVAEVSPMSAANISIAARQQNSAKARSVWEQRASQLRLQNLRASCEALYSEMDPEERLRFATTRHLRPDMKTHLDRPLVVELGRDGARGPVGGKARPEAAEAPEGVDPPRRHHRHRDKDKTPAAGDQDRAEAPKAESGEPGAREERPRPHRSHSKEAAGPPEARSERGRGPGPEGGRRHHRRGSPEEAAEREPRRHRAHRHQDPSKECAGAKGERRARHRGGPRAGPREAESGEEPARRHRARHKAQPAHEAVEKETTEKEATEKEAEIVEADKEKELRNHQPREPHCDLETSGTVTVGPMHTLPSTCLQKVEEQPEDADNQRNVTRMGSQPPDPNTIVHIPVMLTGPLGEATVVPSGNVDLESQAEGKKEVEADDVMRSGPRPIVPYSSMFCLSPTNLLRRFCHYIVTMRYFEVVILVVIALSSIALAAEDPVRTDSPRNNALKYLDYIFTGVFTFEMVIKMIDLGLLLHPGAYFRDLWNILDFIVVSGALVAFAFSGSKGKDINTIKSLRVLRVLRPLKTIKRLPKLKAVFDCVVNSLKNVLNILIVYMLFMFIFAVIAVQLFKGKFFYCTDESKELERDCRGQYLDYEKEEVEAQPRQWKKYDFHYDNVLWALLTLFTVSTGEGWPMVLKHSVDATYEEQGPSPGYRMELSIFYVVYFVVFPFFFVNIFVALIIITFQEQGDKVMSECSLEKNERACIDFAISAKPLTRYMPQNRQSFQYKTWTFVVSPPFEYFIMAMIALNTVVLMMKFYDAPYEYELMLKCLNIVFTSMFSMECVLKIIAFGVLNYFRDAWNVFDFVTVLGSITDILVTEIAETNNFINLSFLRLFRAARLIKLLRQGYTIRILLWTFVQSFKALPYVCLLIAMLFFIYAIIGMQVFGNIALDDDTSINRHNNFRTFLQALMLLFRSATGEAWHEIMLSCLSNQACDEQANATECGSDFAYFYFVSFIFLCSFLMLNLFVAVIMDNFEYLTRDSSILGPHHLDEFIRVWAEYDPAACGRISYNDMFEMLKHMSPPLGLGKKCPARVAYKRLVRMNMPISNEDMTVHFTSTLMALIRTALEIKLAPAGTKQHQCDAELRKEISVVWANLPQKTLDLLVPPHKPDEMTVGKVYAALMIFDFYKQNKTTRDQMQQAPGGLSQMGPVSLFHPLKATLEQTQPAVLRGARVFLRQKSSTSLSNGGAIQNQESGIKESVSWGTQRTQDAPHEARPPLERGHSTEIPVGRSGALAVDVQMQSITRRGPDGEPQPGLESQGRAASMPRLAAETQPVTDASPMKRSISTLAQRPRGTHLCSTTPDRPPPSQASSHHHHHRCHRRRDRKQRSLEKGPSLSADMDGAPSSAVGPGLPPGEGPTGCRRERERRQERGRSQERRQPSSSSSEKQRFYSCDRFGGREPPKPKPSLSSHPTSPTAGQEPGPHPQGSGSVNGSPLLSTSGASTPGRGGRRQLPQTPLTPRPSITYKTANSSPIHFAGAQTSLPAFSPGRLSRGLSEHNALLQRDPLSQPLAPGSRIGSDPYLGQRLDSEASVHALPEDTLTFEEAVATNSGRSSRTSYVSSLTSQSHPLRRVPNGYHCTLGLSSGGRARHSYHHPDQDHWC
Sequence (P54289 25-956 partner limits assumed): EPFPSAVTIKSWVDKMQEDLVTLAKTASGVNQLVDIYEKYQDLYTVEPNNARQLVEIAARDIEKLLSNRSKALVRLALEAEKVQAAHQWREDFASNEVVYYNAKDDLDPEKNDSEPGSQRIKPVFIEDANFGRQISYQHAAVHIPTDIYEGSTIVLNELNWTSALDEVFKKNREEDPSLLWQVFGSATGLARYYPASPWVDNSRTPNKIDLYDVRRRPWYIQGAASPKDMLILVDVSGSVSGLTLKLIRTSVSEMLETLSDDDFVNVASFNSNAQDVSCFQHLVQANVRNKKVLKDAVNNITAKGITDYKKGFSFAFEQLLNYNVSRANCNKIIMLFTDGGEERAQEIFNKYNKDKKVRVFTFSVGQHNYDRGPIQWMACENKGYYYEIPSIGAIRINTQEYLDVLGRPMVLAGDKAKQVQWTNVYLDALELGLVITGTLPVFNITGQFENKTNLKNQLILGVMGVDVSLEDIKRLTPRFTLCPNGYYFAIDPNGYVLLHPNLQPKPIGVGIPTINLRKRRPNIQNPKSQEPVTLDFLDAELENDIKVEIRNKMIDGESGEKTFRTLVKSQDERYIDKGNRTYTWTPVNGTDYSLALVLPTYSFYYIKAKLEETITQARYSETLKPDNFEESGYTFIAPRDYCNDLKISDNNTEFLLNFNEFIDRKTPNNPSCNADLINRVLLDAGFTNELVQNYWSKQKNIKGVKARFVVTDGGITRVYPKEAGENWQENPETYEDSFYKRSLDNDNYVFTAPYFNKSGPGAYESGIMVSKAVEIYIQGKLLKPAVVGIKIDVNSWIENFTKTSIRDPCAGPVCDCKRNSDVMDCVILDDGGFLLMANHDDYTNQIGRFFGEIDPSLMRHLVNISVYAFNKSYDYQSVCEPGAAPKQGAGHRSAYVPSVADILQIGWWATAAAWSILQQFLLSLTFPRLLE
Sequence (P54289 957-1103 partner limits assumed): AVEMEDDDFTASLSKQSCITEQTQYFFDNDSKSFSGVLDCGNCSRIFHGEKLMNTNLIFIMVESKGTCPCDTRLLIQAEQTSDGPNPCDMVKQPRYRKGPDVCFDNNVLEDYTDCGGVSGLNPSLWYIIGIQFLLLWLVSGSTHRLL
Sequence (P54284 whole entry partner): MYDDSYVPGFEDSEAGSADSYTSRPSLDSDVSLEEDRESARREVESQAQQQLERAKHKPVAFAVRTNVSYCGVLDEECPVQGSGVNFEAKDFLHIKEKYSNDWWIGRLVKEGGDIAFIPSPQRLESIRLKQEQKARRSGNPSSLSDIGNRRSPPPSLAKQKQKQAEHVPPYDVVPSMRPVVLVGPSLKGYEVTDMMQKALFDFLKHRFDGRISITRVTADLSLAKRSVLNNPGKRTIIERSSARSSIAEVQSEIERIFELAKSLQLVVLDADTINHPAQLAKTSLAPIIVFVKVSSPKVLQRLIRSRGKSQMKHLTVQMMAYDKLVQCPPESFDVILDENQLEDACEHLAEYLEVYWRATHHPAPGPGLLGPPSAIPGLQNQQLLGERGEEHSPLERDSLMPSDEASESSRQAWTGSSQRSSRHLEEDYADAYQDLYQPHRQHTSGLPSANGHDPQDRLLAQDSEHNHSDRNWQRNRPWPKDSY
measurement-notes: Inhibition of N-type calcium flux in IMR-32 cells (Indo-1 fluorescence, nitrendipine present)
setup-conditions: IMR-32 cells, 5 μM nitrendipine, K+ depolarization
Here the recorded IC50 is given for each entry.

Consider the reported IC50 for these molecules:
Given the molecule CC(C)C[C@H](NC(=O)N1CCCCCC1)C(=O)N[C@@H](Cc1ccc(NCc2ccccc2)cc1)C(=O)NC(C)(C)C , what is its reported IC50? 900 nM

Given the molecule CCC(C)[C@H](NC(=O)N1CCCCCC1)C(=O)N[C@@H](Cc1ccc(OCc2ccccc2)cc1)C(=O)OC(C)(C)C (stereo partly drawn) , what is its reported IC50? 820 nM

Now consider the entry below.
Given the molecule O=C(NCCN1CCCCC1)[C@H](Cc1ccc(OCc2ccccc2)cc1)NC(=O)[C@H](CC1CCCCC1)NC(=O)N1CCCCCC1 , what is its reported IC50? 960 nM

====

target-or-test-system: N-type Ca2+ channels in IMR-32 cells (Homo sapiens)
Construct: host or cells: IMR-32 cells, differentiated with dibutyryl cAMP and bromodeoxyuridine
measurement-notes: Inhibition of N-type calcium flux in IMR-32 cells (Indo-1 fluorescence, nitrendipine present)
Assay type: cell-based
setup-conditions: IMR-32
result-type: inhibition at 10 µM (%)
Give your result in % as a bare value.

Consider the reported inhibition at 10 µM for these compounds:
Given the compound CC(C)C[C@H](NC(=O)N1CCCCCC1)C(=O)N[C@@H](Cc1ccc(OCc2ccccc2)cc1)C(=O)NCC1CCNCC1 , what is its reported inhibition at 10 µM? 17

Given the compound CC(C)C[C@@H](NC(=O)N1CCCCCC1)C(=O)N[C@H](Cc1ccc(OCc2ccccc2)cc1)C(=O)OC(C)(C)C , what is its reported inhibition at 10 µM? 90

Given the compound CC(C)C[C@H](NC(=O)N1CCCCCC1)C(=O)N[C@@H](Cc1ccc(OCc2ccccc2)cc1)C(=O)N1CCSCC1 , what is its reported inhibition at 10 µM? 93

Next:
Given the compound CC(C)C[C@H](NC(=O)N1CCCCCC1)C(=O)N[C@@H](Cc1ccc(OCc2ccccc2)cc1)C(N)=O , what is its reported inhibition at 10 µM? 83

Given the compound CC(C)CC(NC(=O)N1CCCCCC1)C(=O)NC(Cc1ccc(OCc2ccccc2)cc1)C(=O)NC(CO)C(C)C (stereo not shown) , what is its reported inhibition at 10 µM? 93

Given the compound CC(C)C[C@H](NC(=O)N1CCCCCC1)C(=O)N[C@@H](Cc1ccc(C=CC2(O)CCCCC2)cc1)C(=O)NC(C)(C)C , what is its reported inhibition at 10 µM? 58

Given the compound CC(C)C[C@H](NC(=O)N1CCCCCC1)C(=O)N[C@@H](Cc1ccc(C#CC(C)(C)C)cc1)C(=O)NC(C)(C)C , what is its reported inhibition at 10 µM? 71

====

target-or-test-system: N-type Ca2+ channels in IMR-32 cells (Homo sapiens, UniProt Q00975)
Construct: host or cells: IMR-32 cells, differentiated with dibutyryl cAMP and bromodeoxyuridine
measurement-notes: Inhibition of N-type calcium flux in IMR-32 cells (Indo-1 fluorescence, nitrendipine present)
Format: cell-based
setup-conditions: IMR-32
Here the recorded inhibition at 10 µM is given for each entry.
Give your result in % as a bare value.

Consider the reported inhibition at 10 µM for these molecules:
Given the molecule CC(C)C[C@H](NC(=O)N1CCCCCC1)C(=O)N[C@@H](Cc1ccc(CCc2ccccn2)cc1)C(=O)NC(C)(C)C [Example 147] , what is its reported inhibition at 10 µM? 71

Given the molecule CC(C)C[C@H](NC(=O)N1CCCCCC1)C(=O)N[C@@H](Cc1ccc(OCc2cccc(NC(=O)OC(C)(C)C)c2)cc1)C(=O)OC(C)(C)C [Example 28] , what is its reported inhibition at 10 µM? 65

Given the molecule CC(C)[C@H](NC(=O)N1CCCCCC1)C(=O)N[C@@H](Cc1ccc(OCc2ccccc2)cc1)C(=O)OC(C)(C)C [Example 6] , what is its reported inhibition at 10 µM? 98

Given the molecule CC(C)C[C@H](NC(=O)N1CCCCCC1)C(=O)N[C@@H](Cc1ccc(OCc2ccccc2)cc1)C(=O)NCCCn1ccnc1 [Example 237] , what is its reported inhibition at 10 µM? 93

Given the molecule CCC(C)NC(=O)C(Cc1ccc(OCc2ccccc2)cc1)NC(=O)C(CC(C)C)NC(=O)N1CCCCCC1 (stereo not drawn) [Example 243] , what is its reported inhibition at 10 µM? 89

Now consider the entry below.
Given the molecule CC(C)C[C@H](NC(=O)N1CCCCCC1)C(=O)N[C@](C)(Cc1ccc(OCc2ccccc2)cc1)C(=O)OC(C)(C)C [Example 11B] , what is its reported inhibition at 10 µM? 80

====

target-or-test-system: N-type Ca2+ channels in IMR-32 cells (Homo sapiens)
Construct: host or cells: IMR-32 cells, differentiated with dibutyryl cAMP and bromodeoxyuridine
measurement-notes: Inhibition of N-type calcium flux in IMR-32 cells (Indo-1 fluorescence, nitrendipine present)
Type: cell-based
setup-conditions: IMR-32
Method: Measurement of N-type Ca^2+ Channel Blocking Potencies of Compounds in IMR-32 Cells Using the Fluorescent Ca^2+ Indicator Indo-1 IMR-32 cells are a human tumoral cell line of neural origin. […] Calcium flux into these cells may be induced by stimulation with elevated potassium concentrations. The L-channel component of calcium flux may be blocked by adding 5 μM nitrendipine. […] Intracellular calcium concentrations are measured using the fluorescent calcium indicator Indo 1. […]
Parameter threshold = 50%. Response is yes (1) when inhibition at 1 µM meets or exceeds it, else no (0).

Record CCC(C)[C@H](NC(=O)N1CCCCCC1)C(=O)N[C@@H](Cc1ccc(OCc2ccccc2)cc1)C(=O)OC(C)(C)C (stereo partly shown) [Example 5] ; criterion: inhibition at 1 µM no lower than 50%. Met? yes (1)

Record CC(C)C[C@H](NC(=O)N1CCCCCC1)C(=O)N[C@@H](Cc1ccc(OCc2ccccc2)cc1)C(=O)Nc1cccc(C(F)(F)F)c1 [Example 214] ; criterion: inhibition at 1 µM no lower than 50%. Met? no (0)

Record CCC(C)NC(=O)C(Cc1ccc(OCc2ccccc2)cc1)NC(=O)C(CC(C)C)NC(=O)N1CCCCCC1 (stereo not shown) [Example 243] ; criterion: inhibition at 1 µM no lower than 50%. Met? no (0)

Record CC(C)[C@H](NC(=O)N1CCCCCC1)C(=O)N[C@@H](Cc1ccc(OCc2ccccc2)cc1)C(=O)OC(C)(C)C [Example 6] ; criterion: inhibition at 1 µM no lower than 50%. Met? yes (1)

Record COc1ccc(C[C@H](NC(=O)[C@H](CC(C)C)NC(=O)N2CCCCCC2)C(=O)OC(C)(C)C)cc1 [Example 13] ; criterion: inhibition at 1 µM no lower than 50%. Met? no (0)

Record CC(C)C[C@H](NC(=O)N1CCCCCC1)C(=O)N[C@@H](Cc1ccc(OCc2ccccc2)cc1)C(=O)N1CCSCC1 [Example 221] ; criterion: inhibition at 1 µM no lower than 50%. Met? yes (1)

Please turn your attention to the following entry.
Record CC(C)C[C@H](NC(=O)N1CCCCCC1)C(=O)N[C@@H](Cc1ccc(OCc2ccccc2)cc1)C(=O)N1CCN(C)CC1 [Example 176] ; criterion: inhibition at 1 µM no lower than 50%. Met? no (0)

====

Here the recorded Inhibition of Calcium Flux in IMR-32 Cells % Inhibition at 1 μM is given for each entry.
target-or-test-system: N-type Ca2+ channels in IMR-32 cells (Homo sapiens, UniProt Q00975)
Construct: host or cells: IMR-32 cells, differentiated with dibutyryl cAMP and bromodeoxyuridine
measurement-notes: Inhibition of N-type calcium flux in IMR-32 cells (Indo-1 fluorescence, nitrendipine present)
Assay type: cell-based
setup-conditions: 1 μM
Give your result in % as a bare value.

Consider the reported Inhibition of Calcium Flux in IMR-32 Cells % Inhibition at 1 μM for these molecules:
Entry CC(C)C[C@H](NS(=O)(=O)c1cc(Cl)cc(Cl)c1)C(=O)N[C@@H](Cc1ccc(OCc2ccccc2)cc1)C(=O)OC(C)(C)C (relative stereo) , system N-type Ca2+ channels in IMR-32 cells (Homo sapiens, UniProt Q00975): what Inhibition of Calcium Flux in IMR-32 Cells % Inhibition at 1 μM was measured? 32

Entry CC(C)C[C@H](NC(=O)N1CCCCCC1)C(=O)N[C@@H](Cc1ccc(OCc2ccccc2)cc1)C(=O)NCCc1ccc(O)cc1 (relative stereo) , system N-type Ca2+ channels in IMR-32 cells (Homo sapiens, UniProt Q00975): what Inhibition of Calcium Flux in IMR-32 Cells % Inhibition at 1 μM was measured? 55

Entry COc1ccccc1NC(=O)N[C@@H](CC(C)C)C(=O)N[C@@H](Cc1ccc(OCc2ccccc2)cc1)C(=O)OC(C)(C)C (relative stereo) , system N-type Ca2+ channels in IMR-32 cells (Homo sapiens, UniProt Q00975): what Inhibition of Calcium Flux in IMR-32 Cells % Inhibition at 1 μM was measured? 55

Entry CNC(=S)N[C@@H](CC(C)C)C(=O)N[C@@H](Cc1ccc(OCc2ccccc2)cc1)C(=O)OC(C)(C)C (relative stereo) , system N-type Ca2+ channels in IMR-32 cells (Homo sapiens, UniProt Q00975): what Inhibition of Calcium Flux in IMR-32 Cells % Inhibition at 1 μM was measured? 32

Entry CC(=O)Nc1ccc(NC(=O)[C@H](Cc2ccc(OCc3ccccc3)cc2)NC(=O)[C@H](CC(C)C)NC(=O)N2CCCCCC2)cc1 (relative stereo) , system N-type Ca2+ channels in IMR-32 cells (Homo sapiens, UniProt Q00975): what Inhibition of Calcium Flux in IMR-32 Cells % Inhibition at 1 μM was measured? 16

Now consider the entry below.
Entry CC(C)C[C@H](NC(=O)N1CCCCCC1)C(=O)N[C@@H](Cc1ccc(OCc2ccccc2)cc1)C(=O)OCc1ccccc1 (relative stereo) , system N-type Ca2+ channels in IMR-32 cells (Homo sapiens, UniProt Q00975): what Inhibition of Calcium Flux in IMR-32 Cells % Inhibition at 1 μM was measured? 45
